Protocol details: qHTS for differential inhibitors of proliferation of Plasmodium falciparum line HB3 (AID 1886);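 note: parasites grown with compound for 72 h before SYBR Green readout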
Measurement context: Plasmodium falciparum HB3 proliferation inhibition; series mostly up to 28.7 µM
Records with an inconclusive call do not appear. Activity calls are given as the source filed them. Calls come from the whole dose curve; as a rule, active = well fitted curve in the direction sought with a large enough effect; inconclusive = small, poorly fitted or top-dose-only effect, or another doubt; inactive = no such curve, though single readings can be large or run the other way.
Classes used: 1 for active, 0 for inactive

Smiles code	Category label
Oc1ccc2c3c1O[C@H]1c4[nH]c5c(c4C[C@@]4(O)[C@@H](C2)N(CC2CC2)CC[C@]314)C[C@@]1(O)[C@H]2Cc3ccc(O)c4c3[C@@]1(CCN2CC1CC1)[C@H]5O4	1
c1ccc2sc(C3(N4CCCCC4)CCCCC3)cc2c1	1
CC[C@@H]1C(=O)OC[C@@H]1Cc1cncn1C	0
O=C1CCCN1CC#CCN1CCCC1	0
Clc1cnc(Oc2ccc(Oc3ncc(Cl)cc3Cl)cc2)c(Cl)c1	0
